meta.source: patent EP4650353A1

target: human GLP-1 receptor (Homo sapiens, UniProt P43220); construct: HA (N); expressed in transfected cells; experiment: GLP-1 receptor-mediated agonist activity: cAMP level in hGLP-1R/HEK293 cell line (HTRF); assay type: cell-based; conditions: cAMP levels in hGLP-1R/HEK293 cell line; Table 1; read-out: determined EC50
Sequence (P43220 24-463): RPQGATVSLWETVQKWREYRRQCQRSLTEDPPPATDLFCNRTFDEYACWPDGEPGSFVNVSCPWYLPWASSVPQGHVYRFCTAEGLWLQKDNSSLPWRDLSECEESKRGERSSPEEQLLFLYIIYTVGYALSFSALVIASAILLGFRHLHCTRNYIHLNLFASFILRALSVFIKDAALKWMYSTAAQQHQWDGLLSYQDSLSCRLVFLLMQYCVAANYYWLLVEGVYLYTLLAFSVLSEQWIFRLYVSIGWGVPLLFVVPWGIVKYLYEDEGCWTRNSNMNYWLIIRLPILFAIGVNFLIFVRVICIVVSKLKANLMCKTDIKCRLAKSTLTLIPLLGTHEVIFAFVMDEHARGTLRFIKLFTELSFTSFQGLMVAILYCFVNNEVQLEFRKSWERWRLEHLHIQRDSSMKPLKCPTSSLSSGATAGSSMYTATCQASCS
Below is a list of entries, each paired with its recorded pEC50 value.
Units for pEC50: none; it is -log10 of a concentration expressed in mol/L.

Guide cases for pEC50, answers given:
CCOc1cc(C(=O)O)cc2c1nc(CN1CCN(c3cccc4c3O[C@@](C)(c3ccc(C(F)(F)F)cc3F)O4)C=N1)n2C[C@@H]1CCO1
11.74
COc1cc(C(=O)O)cc2c1nc(CN1CCN(c3cccc4c3OC(C)(c3ccc(Cl)cc3F)O4)CC1)n2C[C@@H]1CCO1 (stereo partly shown)
10.95
CCOc1cc(C(=O)O)cc2c1nc(CN1CCN(c3cccc4c3OC(C)(c3ccc(C(F)(F)F)cc3OC)O4)C=N1)n2C[C@@H]1CCO1 (stereo partly shown)
11.21
[2H]C([2H])([2H])Oc1cc(C(=O)O)cc2c1nc(CN1CCC(c3cccc4c3OC(C)(c3ccc(C(F)(F)F)cn3)O4)CC1)n2C[C@@H]1CCO1 (stereo partly shown)
10.85
CCOc1cc(C(=O)O)cc2c1nc(CN1CCC(c3cccc4c3OC(C)(c3ccc(Cl)cc3OC)O4)CC1)n2C[C@@H]1CCO1 (stereo partly shown)
11.66
COc1cc(C(=O)O)cc2c1nc(CN1CCC(c3cccnc3OCc3ccc(Cl)cc3F)CC1)n2C[C@@H]1CCO1
10.43
[2H]C([2H])([2H])C([2H])([2H])Oc1cc(C(=O)O)cc2c1nc(CN1CCN(c3cccc4c3OC(C)(c3ccc(C(F)(F)F)cc3F)O4)C=N1)n2C[C@@H]1CCO1 (stereo partly shown)
10.88
COc1cc(C(=O)O)cc2c1nc(CN1CCC(c3cccc(OCc4ccc(C#N)c5c4OCC5)c3)CC1)n2C[C@@H]1CCO1
10.47

// lookup pEC50 for CCOc1cc(C(=O)O)cc2c1nc(CN1CCN(c3cccc4c3OC(C)(c3ccc(C(F)(F)F)cc3F)O4)C=N1)n2C[C@@H]1CCO1 (stereo partly shown)
11.08

Returns the measured pEC50 for the input compound. Input: [2H]C([2H])([2H])C([2H])([2H])Oc1cc(C(=O)O)cc2c1nc(CN1CCN(c3cccc4c3O[C@@](C)(c3ccc(Cl)cc3F)O4)C=N1)n2C[C@@H]1CCO1
11.80

Request the reported pEC50 associated with CCOc1cc(C(=O)O)cc2c1nc(CN1CCN(c3cccc4c3OC(C)(c3ccc(C(F)(F)F)cn3)O4)C=N1)n2C[C@@H]1CCO1 (stereo partly shown)
11.28

Quick one: pEC50 of CCOc1cc(C(=O)O)cc2c1nc(CN1CCN(c3cccc4c3OC(C)(c3ccc(Cl)cc3F)O4)C=N1)n2C[C@@H]1CCO1 (stereo partly shown) ?
11.19

For the compound shown here, COc1cc(C(=O)O)cc2c1nc(CN1CCC(c3cccc4c3OC(C)(c3ccc(C(F)(F)F)cc3F)O4)CC1)n2C[C@@H]1CCO1 (stereo partly shown) , give the reported pEC50.
11.03

Quick one: pEC50 for COc1cc(C(=O)O)cc2c1nc(CN1CCC(c3cccc(OCc4ccc(Cl)cc4F)n3)CC1)n2C[C@@H]1CCO1 ?
11.59

Requested field: pEC50. Item: CCOc1cc(C(=O)O)cc2c1nc(CN1CCC(c3cccc4c3OC(C)(c3ccc(C(F)(F)F)cn3)O4)CC1)n2C[C@@H]1CCO1 (stereo partly shown)
11.01

Suppose we examine the compound COc1cc(C(=O)O)cc2c1nc(CN1CCN(c3cccc(OCc4ccc(Cl)cc4F)n3)C=N1)n2C[C@@H]1CCO1 ; what pEC50 value has been reported?
11.33
